B1: library; numbered along this chain (parent)
chain: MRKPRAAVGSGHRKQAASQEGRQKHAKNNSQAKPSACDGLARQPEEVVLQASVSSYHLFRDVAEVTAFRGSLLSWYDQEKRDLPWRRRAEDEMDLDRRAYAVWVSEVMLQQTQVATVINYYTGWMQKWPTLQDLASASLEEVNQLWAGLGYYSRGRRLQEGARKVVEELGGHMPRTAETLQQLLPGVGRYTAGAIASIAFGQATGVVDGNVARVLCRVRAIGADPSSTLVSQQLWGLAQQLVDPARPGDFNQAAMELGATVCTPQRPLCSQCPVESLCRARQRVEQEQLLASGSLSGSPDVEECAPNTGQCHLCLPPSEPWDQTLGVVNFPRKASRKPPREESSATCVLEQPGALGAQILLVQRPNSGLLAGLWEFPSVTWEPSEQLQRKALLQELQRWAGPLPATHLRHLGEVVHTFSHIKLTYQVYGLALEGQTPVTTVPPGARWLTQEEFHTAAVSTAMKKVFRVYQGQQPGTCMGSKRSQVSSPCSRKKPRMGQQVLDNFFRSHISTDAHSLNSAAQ

variants of: B1; assay: 8OG:A repair function score (normalized; synonymous = 0, nonsense = -1) (normalized log-likelihood score); higher = more repair activity (WT-like); conditions: with 8OG:A DNA repair reporter (GFP) in HEK-293 MUTYH KO cells;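 note: cells sorted at 72 h after reporter transfection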
Label satisfied when 8OG:A repair function score is at or above -0.4; otherwise label not satisfied.

QUERY: Identify whether the reported 8OG:A repair function score of the following variant is -0.4 or greater: Q363G
RESULT: satisfied

QUERY: How about this variant: E451W
RESULT: satisfied

QUERY: How about this variant: L73D
RESULT: not satisfied

QUERY: How about this variant: D82I
RESULT: satisfied

QUERY: How about this variant: P402Q
RESULT: satisfied

QUERY: How about this variant: S276L
RESULT: satisfied

QUERY: How about this variant: S510Q
RESULT: satisfied

QUERY: How about this variant: S486N
RESULT: satisfied

QUERY: How about this variant: P320H
RESULT: satisfied

QUERY: How about this variant: S296E
RESULT: satisfied

QUERY: How about this variant: L369M
RESULT: satisfied

QUERY: How about this variant: S226T
RESULT: satisfied

QUERY: How about this variant: T130F
RESULT: satisfied

QUERY: How about this variant: R336D
RESULT: satisfied

QUERY: How about this variant: V465Y
RESULT: not satisfied

QUERY: How about this variant: E285Y
RESULT: satisfied

QUERY: How about this variant: V468A
RESULT: satisfied

QUERY: How about this variant: D133Q
RESULT: satisfied

QUERY: How about this variant: E275A
RESULT: satisfied

QUERY: How about this variant: G258N
RESULT: not satisfied

QUERY: How about this variant: L408P
RESULT: not satisfied

QUERY: How about this variant: A41Q
RESULT: satisfied

Every entry's value here was drawn from the supplement of paper PMC11908140.
